Numbers sourced from PubChem BioAssay (NCI).

Test system: NCI-H460 lung
Possible outcomes: 1.0 for active, 0.0 for inactive

smiles-data: O=Nc1c(-c2c(O)[nH]c3ccc([N+](=O)[O-])cc23)[nH]c2ccc(O)cc12
group-label: 1.0
//
smiles-data: Cc1c(S(C)(=O)=O)c(-c2cc(F)cc(N3CCN(c4ccc(NS(=O)(=O)c5ccc(N[C@H](CCN6CCC(C(=O)OCCCP(=O)(O)O)CC6)CSc6ccccc6)c(S(=O)(=O)C(F)(F)F)c5)cc4)CC3)c2)c(-c2ccc(Cl)cc2)n1C(C)C
group-label: 0.0
//
smiles-data: CN(C)c1ccc([O-])cc1.CN(C)c1ccc([O-])cc1.CN(C)c1ccc([O-])cc1.CN(C)c1ccc([O-])cc1.[Ti+4]
group-label: 0.0
